B1: CPEB3 Ribozyme (parent)
chain: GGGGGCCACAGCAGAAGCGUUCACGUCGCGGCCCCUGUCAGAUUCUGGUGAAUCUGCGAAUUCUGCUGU

Variants of: B1
protocol-summary: self-cleavage, relative activity (ratio to wild type); higher = more cleavage; co-transcriptional
Reported values of self-cleavage for individual entries
Write no unit; give the number alone.

Solved cases below.
C22A C54A :: 0.0889
G5U U67C :: 0.628

Exercise: self-cleavage lookup needed for G5C A13C , thanks.
Solution: 0.17

Exercise: self-cleavage lookup needed for U21C A59C , thanks.
Solution: 0.351

Exercise: self-cleavage lookup needed for G1A C33A , thanks.
Solution: 0.0757

Source listed as the RNAGym collection of RNA variant scans (doi:10.7554/elife.80360).
